target: trypsin (Bos taurus, UniProt P00760); construct: bovine pancreatic trypsin; purchased Worthington Biochemical Corp. TRL3; host or cells: bovine pancreas; assay: In vitro enzyme assay for specificity: trypsin; format: biochemical, bovine; details: second of the two values in the cell (two isomeric pair); 0.5 nM enzyme, 30 minute incubation; read-out: IC50 for inhibition of trypsin
Sequence (P00760 24-246): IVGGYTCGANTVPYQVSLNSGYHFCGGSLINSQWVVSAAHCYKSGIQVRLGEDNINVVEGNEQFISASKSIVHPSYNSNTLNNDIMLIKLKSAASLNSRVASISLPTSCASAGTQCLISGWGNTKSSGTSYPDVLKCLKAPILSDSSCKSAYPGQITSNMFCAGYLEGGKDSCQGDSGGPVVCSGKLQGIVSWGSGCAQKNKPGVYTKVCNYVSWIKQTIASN
pIC50: −log10 of the molar value.
measured_metric: pIC50

CCCC(CCC)C(=O)N[C@@H](CC(=O)OC)C(=O)N1CCC[C@H]1C(=O)N[C@H](C=O)CC1CCCN(C(=N)N)C1 (single isomer, unassigned) [Isomer 11B]
6.95

====

molecular target: alpha-thrombin (Homo sapiens); assay: In vitro enzyme assay for specificity: thrombin; settings: first of the two values in the cell (two isomeric pair), or the only value; 0.25 nM enzyme, 30 minute incubation; read-out: IC50 for inhibition of alpha-thrombin amidolytic activity
pIC50: −log10 of the molar value.
measured_metric: pIC50

CCCC(CCC)C(=O)N[C@@H](Cc1nnn[nH]1)C(=O)N1CCC[C@H]1C(=O)N[C@H](C=O)CC1CCCN(C(=N)N)C1 (single isomer, unassigned) [Isomer 19B]
8.51

src = patent US5883107A
